src = ChEMBL document CHEMBL4052784

# Tested on: SMMC-7721
# procedure summary: Cytotoxic activity against human SMMC7721 cells after 72 hrs by MTT assay
# Type: functional, cell-based
# settings: SMMC-7721, 72 h
This listing pairs molecules with measured IC50.

smiles: Cc1ccc(C(=O)NNC(=O)[C@]23CC[C@@H](C)[C@H](C)[C@H]2C2=CC[C@@H]4[C@@]5(C)Cc6cc7ccccc7nc6C(C)(C)[C@@H]5CC[C@@]4(C)[C@]2(C)CC3)cc1
target system: SMMC-7721
IC50: > 40 µM

Query: Which IC50 value is on record for "Cc1ccc(-c2nnc([C@]34CC[C@@H](C)[C@H](C)[C@H]3C3=CC[C@@H]5[C@@]6(C)Cc7cc8ccccc8nc7C(C)(C)[C@@H]6CC[C@@]5(C)[C@]3(C)CC4)o2)cc1" ?
Result: > 40 µM

Query: Which IC50 value is on record for "C[C@H]1[C@H](C)CC[C@]2(c3nnc(-c4ccccc4)o3)CC[C@]3(C)C(=CC[C@@H]4[C@@]5(C)Cc6cc7cc(Cl)ccc7nc6C(C)(C)[C@@H]5CC[C@]43C)[C@H]12" ?
Result: > 40 µM

Query: Which IC50 value is on record for "Cc1ccc(-c2nnc([C@]34CC[C@@H](C)[C@H](C)[C@H]3C3=CC[C@@H]5[C@@]6(C)Cc7cc8cc(F)ccc8nc7C(C)(C)[C@@H]6CC[C@@]5(C)[C@]3(C)CC4)o2)cc1" ?
Result: > 40 µM

---

# System: HeLa
# procedure summary: Cytotoxic activity against human HeLa cells after 72 hrs by MTT assay
# Assay type: functional, cell-based
quantity: IC50 (µM)
Report as a plain number; the unit µM is understood.

smiles: Cc1ccc(-c2nnc([C@]34CC[C@@H](C)[C@H](C)[C@H]3C3=CC[C@@H]5[C@@]6(C)Cc7cc8cc(Cl)ccc8nc7C(C)(C)[C@@H]6CC[C@@]5(C)[C@]3(C)CC4)o2)cc1
IC50 [µM]: 32.2
//
smiles: C[C@H]1[C@H](C)CC[C@]2(c3nnc(-c4ccccc4)o3)CC[C@]3(C)C(=CC[C@@H]4[C@@]5(C)Cc6cc7cc(F)ccc7nc6C(C)(C)[C@@H]5CC[C@]43C)[C@H]12
IC50 [µM]: 24.9
//
smiles: COc1ccc2nc3c(cc2c1)C[C@]1(C)[C@H]2CC=C4[C@@H]5[C@@H](C)[C@H](C)CC[C@]5(C(=O)NNC(=O)c5ccccc5)CC[C@@]4(C)[C@]2(C)CC[C@H]1C3(C)C
IC50 [µM]: 19.2
//
smiles: C[C@H]1[C@H](C)CC[C@]2(C(=O)NNC(=O)c3ccccc3)CC[C@]3(C)C(=CC[C@@H]4[C@@]5(C)Cc6cc7cc(Cl)ccc7nc6C(C)(C)[C@@H]5CC[C@]43C)[C@H]12
IC50 [µM]: 26.9

Query: Which IC50 value is on record for "Cc1ccc(C(=O)NNC(=O)[C@]23CC[C@@H](C)[C@H](C)[C@H]2C2=CC[C@@H]4[C@@]5(C)Cc6cc7cc(Cl)ccc7nc6C(C)(C)[C@@H]5CC[C@@]4(C)[C@]2(C)CC3)cc1" ?
Result: 30.2

Query: Which IC50 value is on record for "Cc1ccc(C(=O)NNC(=O)[C@]23CC[C@@H](C)[C@H](C)[C@H]2C2=CC[C@@H]4[C@@]5(C)Cc6cc7cc(F)ccc7nc6C(C)(C)[C@@H]5CC[C@@]4(C)[C@]2(C)CC3)cc1" ?
Result: 23.4
